Test system: GCN2(Kin.Dom.2,S808G)
Construct: gene EIF2AK4
run.parameters: concentration: 1 μM, replicates: in singlicate; n = 1;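 note: KINOMEscan kinase panel screen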
assay.metric: %Inh (%)
Your answer is read as %, so omit the unit and give the number.

Q: Return %Inh for the following compound: CC(=O)Nc1n[nH]c2ncc(-c3ccccc3)cc12
Ans: 27

Q: Return %Inh for the following compound: O=C(Nc1n[nH]c2nc(-c3ccco3)c(Br)cc12)c1ccc(CN2CCCC2)cc1.O=C(O)[C@H](O)[C@@H](O)C(=O)O
Ans: 0

Q: Return %Inh for the following compound: Fc1cccc(COc2ccc(Nc3ncnc4nn5ccccc5c34)cc2Cl)c1
Ans: 0

Q: Return %Inh for the following compound: Cl.Cn1ccc(-c2cccc(Nc3ccnc4cc(-c5nccs5)ccc34)c2)n1
Ans: 0

Q: Return %Inh for the following compound: COC(=O)c1c(-c2ccccc2)c2cc(Cl)ccc2c(=O)n1Cc1ccc(S(C)(=O)=O)cc1
Ans: 0

----------
# %Inh annotations
System: IKK-epsilon
Construct: gene IKBKE
run.parameters: concentration: 1 μM, replicates: in singlicate; n = 1
Your answer is read as %, so omit the unit and give the number.

Fc1cccc(COc2ccc(Nc3ncnc4cc[nH]c34)cc2Cl)c1 = 39
COc1ccc(NC(=O)Nc2ccc(C)c(-c3ccc(C(=O)Nc4ccncc4)cc3)c2)cc1 [GSK1398475] = 0
NC(=O)c1sc(-n2cnc3ccccc32)cc1OCc1ccccc1F [GSK1024306] = 0

Q: Retrieve %Inh on IKK-epsilon; query COC(=O)c1cccc(NC(=O)NCCNc2ccnc(Nc3ccc(F)cc3)n2)c1 [GSK1379883]
Ans: 1

Q: Retrieve %Inh on IKK-epsilon; query Cl.Cl.c1ccc(-c2cc3ccncc3cc2OC2CCNCC2)cc1 [GSK1122999]
Ans: 9

Q: Retrieve %Inh on IKK-epsilon; query O=c1cc(N2CCOCC2)nc2n(Cc3cccc(Cl)c3)ccn12 [GSK2296823]
Ans: 35

Q: Retrieve %Inh on IKK-epsilon; query Fc1cccc(COc2ccc(Nc3ncnc4sc(-c5ccc[nH]5)cc34)cc2Cl)c1 [GW707818]
Ans: 0

Q: Retrieve %Inh on IKK-epsilon; query FC(F)(F)c1ccc(-c2cc(-c3c[nH]nc3-c3ccccn3)ccn2)cc1 [GW599550]
Ans: 47

Q: Retrieve %Inh on IKK-epsilon; query O=C(c1ccc(-c2cc(-c3c[nH]nc3-c3ccccn3)ccn2)cc1)N1CCCC1 [GW792479]
Ans: 0

Q: Retrieve %Inh on IKK-epsilon; query Nc1nc(-c2ccc3c(N)n[nH]c3c2)cc(N2CCC[C@@H](C(=O)Nc3ccccc3)C2)n1.O=C(O)C(F)(F)F.O=C(O)C(F)(F)F [GSK2288359]
Ans: 29

Q: Retrieve %Inh on IKK-epsilon; query Cc1cccc(-c2nc(Nc3ccc4[nH]nnc4c3)c3ccccc3n2)n1 [GW867587]
Ans: 0

Q: Retrieve %Inh on IKK-epsilon; query Nc1nc(-c2ccccn2)c(-c2ccnc3ccccc23)s1 [GW548057]
Ans: 22

----------
Test system: DDR2
run.parameters: concentration: 1 μM, replicates: in singlicate; n = 1
Entries are sorted into classes by %Inh as follows: one = under 7%, two = from 7% up to 20%, three = 20% and over

Fc1cccc(COc2ccc(Nc3ncnc4nn5ccccc5c34)cc2Cl)c1 = three
CCC(CC)(CC)n1cnc2c(N)ncnc21 = three
CN1c2ccc(-c3ccc(C(=O)NCCO)cc3)cc2-c2[nH]ncc2S1(=O)=O = one
FC(F)(F)c1ccc(-c2cc(-c3c[nH]nc3-c3ccccn3)ccn2)cc1 = two
CC(C)(C)c1ccc(-n2cnc3c(N)ncnc32)cc1 = two

Q: Each compound maps to one class by %Inh. Which class for COc1ccc(Nc2nccc(N3CCC(NC(=O)Nc4ccc5c(c4)OCO5)C3)n2)cc1 (stereo not drawn) ?
Ans: three

Q: Each compound maps to one class by %Inh. Which class for Cc1cccc(-c2nc(Nc3ccc4[nH]nnc4c3)c3ccccc3n2)n1 ?
Ans: three

Q: Each compound maps to one class by %Inh. Which class for Cn1cc(-c2ccc3c(c2)CCN3C(=O)Cc2cccc(C(F)(F)F)c2)c2c(N)ncnc21 ?
Ans: three

Q: Each compound maps to one class by %Inh. Which class for CCc1nc(-c2cccc(C)c2)c(-c2ccnc(NC(=O)c3ccccc3)c2)s1 ?
Ans: one

Q: Each compound maps to one class by %Inh. Which class for COc1ccc(Nc2nccc(N3CCC(NC(=O)c4cccc(NC(C)=O)c4)C3)n2)cc1 (stereo not drawn) ?
Ans: three
